System: Hs-578T
Assay: NCI tumour cell line growth inhibition, 48 h
Active and inactive are the calls of the source. No stated cut-off is given here; in the data, active = GI50 up to about 1.1 µM and inactive = higher. Peptide text beside a SMILES is read from it. * marks the point of attachment. Cbz = O=C(OCc1ccccc1)*
Classes used: active, inactive

| Molecule | Class label |
| --- | --- |
| O=C1OC(C2=CC(=O)c3ccccc3C2=O)C(Cl)=C1Cl (centres undefined) | inactive |
| CN(C)c1ccc(C(Cc2ccccc2)C2NC(=S)NC2=O)cc1 (centres undefined) | inactive |
| COc1ccc(/N=C/C=C/Nc2ccc(OC)cc2)cc1 | inactive |
| O=C(Nc1ccc(Br)cc1)c1c(-c2ccccc2)c2ccc(O)cc2oc1=O | inactive |
| COc1ccc(/C=C2\C[C@H]3[C@@H]4CC=C5C[C@@H](OC(C)=O)CC[C@]5(C)[C@H]4CC[C@]3(C)\C2=N\O)cc1OC | inactive |
| COC(=O)[C@@H]1[C@H](OC(C)=O)CCC2[C@@]3(C[C@@H](c4ccoc4)O[C@@H]3OC)[C@H](C)CC[C@]21C(=O)OC (some centres undefined) | inactive |
| COc1ccc(CNc2nc(NCc3ccc(OC)cc3)nc(NC(C)C)n2)cc1 | inactive |
| CC(C)CCn1c(=O)c2c(=O)[nH][nH]c2c2ccccc21 | inactive |
| C=CCC1CC(n2cc(C)c(=O)[nH]c2=O)OC1CO[Si](C)(C)C(C)(C)C (centres undefined) | inactive |
| N=C1/C(=C/c2ccco2)C(=O)N=C2SC=NN12 | inactive |
| O=C(O)CN1CCN2CCOCCOCCN(CC1)CCN(CC(=O)O)CC2 | inactive |
| CCOC(=O)C(C)NC(=O)C(C)NC(=O)C(C)NC(=O)C(C)NC(=O)C(C)NC(=O)C(C)NC(=O)C(C)NC(=O)OCc1ccccc1 (centres undefined) (Cbz-AAAAAAA-OEt; configuration not given here) | inactive |
| NCC(=O)C(O)C(O)C(O)CO (centres undefined) | inactive |
| O=C1Cc2c(-c3ccccc3)cc(-c3ccc(Cl)cc3)nc2-c2ccccc2N1 | inactive |
| COC(=O)C1=C([C@H]2COC(C)(C)O2)[C@H]2C[C@@H]1[C@@H]1OC(C)(C)O[C@@H]12 | inactive |
| CSCCC(NOC(=O)Cc1ccccc1)P(=O)(O)c1ccccc1 (centres undefined) | inactive |
| CCN(CC)CCCNc1c2cc(OC)ccc2nc2cccc([N+](=O)[O-])c12 | active |
| CN(C)/C=N/n1c2ccccc2c2ccccc21 | inactive |
| Cc1cc(C)nc(NS(=O)(=O)c2ccc(NNc3c4ccccc4nc4c(C(=O)Nc5ccc(S(N)(=O)=O)cc5)cccc34)cc2)n1 | inactive |

====

Tested on: OVCAR-5
Test: NCI tumour cell line growth inhibition, 48 h
Active and inactive are the calls of the source. Rule as the data show it: active = GI50 up to about 1.1 µM and inactive = higher.

| Structure smiles | GI50 |
| --- | --- |
| COc1ccc(NC(=S)NNC(=O)c2nsc3ccccc23)cc1 | > 100 µM (inactive) |
| C=C1c2nc3ccccc3n2C=C(c2ccc(Cl)cc2)N1c1ccc(OCCN2CCOCC2)cc1 | > 100 µM (inactive) |
| N#Cc1c(-c2ccc([N+](=O)[O-])cc2)cc(-c2ccc(Nc3ccnc4cc(C(F)(F)F)ccc34)cc2)[nH]c1=O | 21.4 µM (inactive) |
| O=c1c(SSc2coc3cc(F)ccc3c2=O)coc2cc(F)ccc12 | 37.8 µM (inactive) |
| CS(=O)(=O)Nc1ccc(N2Cc3c[nH]c4ccc5nccc2c5c34)cc1 | 22.8 µM (inactive) |
| COc1ccc(C[C@H](N)C(=O)N2C[C@@H](CO)C[C@@H](n3cnc4c(N(C)C)ncnc43)C2)cc1 | > 100 µM (inactive) |
| CN(C)c1nc(N)nc(CCl)n1 | 65.9 µM (inactive) |
| Nc1ccc(C(=O)N/C(=C\C=C\c2ccco2)c2nc3c(O)nc(S)nc3[nH]2)cc1 | > 100 µM (inactive) |
| NNC(=O)CCSc1ccccc1 | > 100 µM (inactive) |
| C=C(c1ccc2[nH]c(NC(=O)OC)nc2c1)c1cccs1 | 2.1 µM (inactive) |

====

System: ACHN
Experiment: NCI tumour cell line growth inhibition, 48 h
Activity calls are given as the source filed them. Cut-off read from the data, not from the text of the source: active = GI50 up to about 1.1 µM and inactive = higher.
Experimental readout: GI50

| Compound | Result |
| --- | --- |
| O=C(O)c1cccc(OCCO)c1 | > 100 µM (inactive) |
| COc1cc2cc(C(=O)N3CC(CCl)c4ccc([N+](C)(C)Cc5ccc([N+](=O)[O-])cc5)cc43)[nH]c2c(OC)c1OC (stereo not given) | 2.29 µM (inactive) |
| COC(=O)C(C(=O)C(=O)Nc1ccc([N+](=O)[O-])cc1[N+](=O)[O-])c1nc2ccc(Cl)cc2nc1O (stereo not given) | 65 µM (inactive) |
| CN(C)c1nc(N)nc(CCl)n1 | 15.8 µM (inactive) |
| CCN(CC)CCCC(C)Nc1ccnc2cc(Cl)ccc12 (stereo not given) [CHLOROQUINE PHOSPHATE] | > 85.1 µM (inactive) |

====

System: SK-MEL-2
Experiment: NCI tumour cell line growth inhibition, 48 h
The source made the active and inactive calls. Rule as the data show it: active = GI50 up to about 1.1 µM and inactive = higher.
The entries below are paired with their reported GI50.

| Compound | GI50 |
| --- | --- |
| O=C(CCN1CCCCC1CO)Nc1ccc2c(c1)C(=O)c1ccc(NC(=O)CCN3CCCCC3CO)cc1C2=O (stereo not given) | 4.58 µM (inactive) |
| c1ccc2cc(-c3cc4ccccc4s3)ccc2c1 | > 100 µM (inactive) |
| Cc1ccnc(NS(=O)(=O)c2ccc(N=[N+]=[N-])cc2)n1 | > 100 µM (inactive) |
| N#Cc1c(-c2ccc([N+](=O)[O-])cc2)cc(-c2ccc(Nc3ccnc4cc(C(F)(F)F)ccc34)cc2)[nH]c1=O | > 100 µM (inactive) |
| Cc1ccc(N2C(=O)CS/C2=C(\C#N)c2nc3ccccc3[nH]2)cc1 | > 100 µM (inactive) |
| CN(C)c1ccc(C2CC(c3ccc4ccccc4c3O)=NN2)cc1 (stereo not given) | 35.7 µM (inactive) |
| COC(=O)C1=C([C@H]2COC(C)(C)O2)[C@H]2C[C@@H]1[C@@H]1OC(C)(C)O[C@@H]12 | > 100 µM (inactive) |
| C=CCC1CC(n2cc(C)c(=O)[nH]c2=O)OC1CO[Si](C)(C)C(C)(C)C (stereo not given) | 15.5 µM (inactive) |
| COc1cc2c(cc1OC)C(=O)/C(=C/c1ccccc1)CC2 | 14.1 µM (inactive) |
| N#C/C(C(=O)NCc1ccccc1)=C(/N)N1CCCC1 | > 100 µM (inactive) |

====

Test system: SNB-78
Assay: NCI tumour cell line growth inhibition, 48 h
Active and inactive are the calls of the source. Cut-off read from the data, not from the text of the source: active = GI50 up to about 1.1 µM and inactive = higher.

| Molecule | Assayed target | GI50 |
| --- | --- | --- |
| COc1ccc(Br)c(CCCCC(=O)O)c1 | SNB-78 | > 100 µM (inactive) |
| CC1=CC(O)C(O)C2(C)C1CC1OC(=O)C(O)C3C(C)C(O)C4(O)OCC13C42 (configuration not stated) | SNB-78 | 39.4 µM (inactive) |
| COc1cccc2c1[C@H]1CO[C@H]3C4C[C@H](C(=O)O)C([C@@H](C2)N13)N4C (some centres not stated) | SNB-78 | 3.72 µM (inactive) |
| CC(=O)CC(=O)CCCC(=O)Nc1ccc(Cl)cc1C | SNB-78 | > 100 µM (inactive) |
| CCOC(=O)CN1CCS/C1=N/C#N | SNB-78 | > 100 µM (inactive) |
| Cn1c(N)nc(=O)c2c1N(C1OC(CO)C(O)C1O)CN2Cc1ccccc1 (configuration not stated) | SNB-78 | > 100 µM (inactive) |
| Cc1nc2ccc(N)cc2nc1O | SNB-78 | > 100 µM (inactive) |
| O=C(NCCCCCCNC(=O)n1cc(F)c(=O)[nH]c1=O)NCCCOCCOCCOCCOCCOCCOCCOCCOCCOCCOCCOCCOCCOCCOCCOCCOCCOCCOCCOCCOCCOCCCNC(=O)C(O)C(O)C(O)C(O)CO (configuration not stated) | SNB-78 | > 100 µM (inactive) |
| N#CN=C(NCc1ccccc1)NCc1ccccc1 | SNB-78 | > 100 µM (inactive) |
| CC(=O)Oc1c(C)n(CCCl)ccc1=O | SNB-78 | > 100 µM (inactive) |
| O=C1NC2OC(CO)C(O)C(O)C2O1 (configuration not stated) | SNB-78 | > 100 µM (inactive) |
| NC(=O)NC12CC3CC(CC(F)(C3)C1)C2 | SNB-78 | > 100 µM (inactive) |
| CCC(CO)Nc1nc2c(c(=O)n(C)c(=O)n2C)n1CCO (configuration not stated) | SNB-78 | 4.91 µM (inactive) |
| CCCCCc1cc(OC(=O)c2c(O)cc(OC)cc2CCCCC)cc(O)c1C(=O)O | SNB-78 | 30.9 µM (inactive) |
| C/C(=N\NC(=[Se])N(C)C)c1ccccn1 | SNB-78 | 2.97 µM (inactive) |
| O=C1OC2CC=CC1C2 (configuration not stated) | SNB-78 | > 100 µM (inactive) |
| CC1=CC(/C=C(\C)CCCc2ccoc2)C2(OC(=O)C(C)=C2O)[C@H]2C1CC[C@@H]2C (some centres not stated) | SNB-78 | 30.5 µM (inactive) |
| CC(=O)NC(CCCN(Cc1ccccc1)C(=O)N(C)N=O)C(=O)NCc1ccccc1 (configuration not stated) | SNB-78 | > 100 µM (inactive) |
| COc1ccc2c(c1)[n+]([O-])c(C(N)=O)c(N)[n+]2[O-] | SNB-78 | > 100 µM (inactive) |
| O=[N+]([O-])c1ccc(/C=C/c2ccc(/C=C/c3ccc([N+](=O)[O-])cc3[N+](=O)[O-])cc2)c([N+](=O)[O-])c1 | SNB-78 | > 100 µM (inactive) |
| Cc1ccc(-c2cc(=O)c3cc(C)c(C)c(C(=O)O)c3o2)cc1[N+](=O)[O-] | SNB-78 | > 100 µM (inactive) |
| O=C1C[C@@H]2[C@@H](CCC23CC3)N1 | SNB-78 | > 100 µM (inactive) |
